tested on: OVCAR-3 ovarian; assay: NCI tumour cell line growth inhibition, 48 h
MEASURE: TGI

A selection of reference data follows.
{"columns": ["COMPOUND", "SYSTEM_TESTED", "EXPERIMENTAL_VALUE"],
 "data": [
  ["COc1ccc(CCNC(=O)c2ccccc2C2c3ccc(OCc4ccccc4)cc3Oc3cc(OCc4ccccc4)ccc32)cc1OC", "OVCAR-3 ovarian", "> 100 µM"],
  ["COc1ccc(O)cc1C(O)c1ccccc1 (stereo not drawn)", "OVCAR-3 ovarian", "> 100 µM"]
]}

Moving on to another compound below.
// sample Nc1nc(N)c2ncn(CCOC(c3ccccc3)P(=O)(O)O)c2n1 (stereo not drawn) , its TGI was > 100 µM

###

Entries annotated with measured TGI
tested on: UO-31 renal; assay: NCI tumour cell line growth inhibition, 48 h

{"columns": ["MOLECULE", "TGI"],
 "data": [
  ["CC1(C)C(=O)C(C)(C)C1=NNC(N)=S", "> 100 µM"],
  ["c1ccc2c(c1)c1c3c(c4c(n32)=NCCN4)CCC1", "> 100 µM"]
]}

Moving on to another molecule below.
// sample Nc1nc(N)c2ncn(CCOC(c3ccccc3)P(=O)(O)O)c2n1 (stereo not drawn) , its TGI was > 100 µM

###

system: DU-145 prostate; assay: NCI tumour cell line growth inhibition, 48 h
Entries annotated with measured TGI

{"columns": ["COMPOUND_STRUCTURE", "EXPERIMENTAL_VALUE"],
 "data": [
  ["O=C(O)CCCNc1ncc2c(n1)-c1ccccc1OC2", "> 100 µM"],
  ["c1ccc(-c2c(-c3cccs3)[nH]c(-c3cccs3)c2-c2ccccn2)nc1", "> 100 µM"]
]}

Moving on to another molecule below.
Measured on DU-145 prostate, `O=[N+]([O-])c1ccc2sc(/C=N/c3ccccn3)cc2c1` has a documented TGI of > 100 µM

###

tested on: RXF 393 renal; assay: NCI tumour cell line growth inhibition, 48 h
MEASURE: TGI (µM)
Your answer should be a plain number; it is taken to be in µM.

{"columns": ["COMPOUND", "SYSTEM_TESTED", "TGI, µM"],
 "data": [
  ["COC(=O)c1ccc(C)cc1CC1Cc2cccc(C)c2C1=O (centres undefined)", "RXF 393 renal", 30.2]
]}

Moving on to another compound below.
// sample `COC(=O)c1c(O)ccc2c1c1c(n2Cc2ccccc2OC)C(=O)c2ccccc2C1=O` , its TGI was 30.7

###

Entries annotated with measured TGI
tested on: OVCAR-4 ovarian; assay: NCI tumour cell line growth inhibition, 48 h

A selection of reference data follows.
{"columns": ["COMPOUND", "SYSTEM_TESTED", "TGI"],
 "data": [
  ["CC(C)(C)[C@H]1CO[C@]2(c3ccccc3)[C@@H]3C[C@@H]3C(=O)N12", "OVCAR-4 ovarian", "> 100 µM"],
  ["O=C(Nc1cc(F)c(F)cc1C(=O)O)c1ccc(-n2ccnc2)nn1", "OVCAR-4 ovarian", "> 100 µM"]
]}

// sample COc1cc([C@@H]2c3cc4c(cc3[C@@H](OC(=O)c3cccc(N)c3)C3COC(=O)[C@@H]32)OCO4)cc(OC)c1O (stereo not given in full) , its TGI was > 100 µM

// sample `c1ccc(Cn2c(-c3ccc(-c4ccccc4)cc3)cc3ccccc32)cc1` , its TGI was > 100 µM

// sample `C#C[C@@]1(O)[C@@H](CO)O[C@@H](n2cc(C(F)(F)F)c3c(N)ncnc32)[C@@H]1O` , its TGI was > 100 µM
